- experimental_protocol: Drug concentration at steady state in human at 50 to 400 mg, po BID after 12 hrs
- Format: ADME, organism-based
- test_settings: in vivo, read-out: Css
measure: concentration at 12 h (nM)
Report as a plain number; the unit nM is understood.

Problem: Param item = C#C[C@]1(O)CC[C@H]2[C@@H]3CCC4=Cc5oncc5C[C@]4(C)[C@H]3CC[C@@]21C ; retrieve measured concentration at 12 h.
Result: 457

---

- experimental_protocol: Drug concentration at steady state in human at 150 to 600 mg, iv QD after 24 hrs
- Format: ADME, organism-based
- test_settings: in vivo, read-out: Css
measure: concentration at 24 h (µM)
Express it in µM; write the number only.

Problem: Return reported concentration at 24 h; argument: CO[C@H]1/C=C/O[C@@]2(C)Oc3c(C)c(O)c4c(O)c(c(/C=N/N5CCN(C)CC5)c(O)c4c3C2=O)NC(=O)/C(C)=C\C=C\[C@H](C)[C@H](O)[C@@H](C)[C@@H](O)[C@@H](C)[C@H](OC(C)=O)[C@@H]1C
Result: 3.73

---

- subject_of_test: Bile salt export pump (Homo sapiens)
- Sequence (O95342 whole entry): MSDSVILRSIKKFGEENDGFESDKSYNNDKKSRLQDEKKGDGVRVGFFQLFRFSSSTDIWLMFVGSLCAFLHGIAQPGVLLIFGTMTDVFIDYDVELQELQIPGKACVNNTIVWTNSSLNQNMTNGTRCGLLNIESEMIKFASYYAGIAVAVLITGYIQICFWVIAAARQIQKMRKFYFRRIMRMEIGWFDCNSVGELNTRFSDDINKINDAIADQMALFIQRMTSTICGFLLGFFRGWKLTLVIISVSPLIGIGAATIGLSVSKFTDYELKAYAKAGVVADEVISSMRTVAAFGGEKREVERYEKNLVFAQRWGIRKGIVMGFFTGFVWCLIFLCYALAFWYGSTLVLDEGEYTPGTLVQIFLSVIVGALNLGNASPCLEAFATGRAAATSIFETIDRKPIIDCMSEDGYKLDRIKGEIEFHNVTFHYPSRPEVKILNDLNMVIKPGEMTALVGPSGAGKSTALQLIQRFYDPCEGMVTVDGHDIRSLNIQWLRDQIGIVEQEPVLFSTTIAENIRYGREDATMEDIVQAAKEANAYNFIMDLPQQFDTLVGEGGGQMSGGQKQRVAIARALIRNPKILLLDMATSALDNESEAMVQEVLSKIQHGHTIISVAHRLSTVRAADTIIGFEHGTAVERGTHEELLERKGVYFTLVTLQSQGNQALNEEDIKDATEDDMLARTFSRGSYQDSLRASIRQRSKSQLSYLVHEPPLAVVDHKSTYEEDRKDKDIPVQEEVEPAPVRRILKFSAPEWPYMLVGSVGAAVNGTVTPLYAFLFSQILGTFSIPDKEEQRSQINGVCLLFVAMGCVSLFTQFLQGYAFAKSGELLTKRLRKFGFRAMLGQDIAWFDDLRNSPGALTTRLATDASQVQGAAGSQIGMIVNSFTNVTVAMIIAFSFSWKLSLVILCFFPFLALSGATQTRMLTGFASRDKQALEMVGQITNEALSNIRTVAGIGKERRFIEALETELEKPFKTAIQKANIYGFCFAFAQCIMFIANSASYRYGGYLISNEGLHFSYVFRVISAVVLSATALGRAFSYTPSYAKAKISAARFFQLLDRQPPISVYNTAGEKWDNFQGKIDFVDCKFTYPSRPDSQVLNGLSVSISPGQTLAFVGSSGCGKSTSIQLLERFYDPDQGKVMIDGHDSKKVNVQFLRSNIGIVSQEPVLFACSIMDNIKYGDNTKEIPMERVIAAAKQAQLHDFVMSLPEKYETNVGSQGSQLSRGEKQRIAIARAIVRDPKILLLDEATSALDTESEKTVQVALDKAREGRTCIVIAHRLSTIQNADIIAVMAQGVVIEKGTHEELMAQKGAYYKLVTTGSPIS
- experimental_protocol: Inhibition of human BSEP overexpressed in Sf9 cell membrane vesicles assessed as uptake of [3H]-taurocholate in presence of ATP measured after 15 to 20 mins by membrane vesicle transport assay
Counter-ions that a name gives are not always drawn.
measure: IC50

compound	IC50
CN(C)CCC[C@@]1(c2ccc(F)cc2)OCc2cc(C#N)ccc21 [ESCITALOPRAM OXALATE]	> 133 µM

Problem: Can you share its IC50? I mean this compound: C[C@]12C/C(=C/O)C(=O)C[C@@H]1CC[C@@H]1[C@@H]2CC[C@@]2(C)[C@H]1CC[C@]2(C)O [OXYMETHOLONE]
Result: 48.7 µM

Problem: And for O=C(O)[C@H]1/C(=C/CO)O[C@@H]2CC(=O)N21 [CLAVULANATE POTASSIUM] ?
Result: > 133 µM

Problem: // repeat for CO/N=C(\C(=O)N[C@@H]1C(=O)N2C(C(=O)O)=C(CSc3nc(=O)c(=O)[nH]n3C)CS[C@H]12)c1csc(N)n1 and report
Result: > 133 µM

---

- experimental_protocol: Drug concentration at steady state in human at 200 mg, po QD for 1 to 2 weeks after 24 hrs
- Type: ADME, organism-based
- test_settings: in vivo, read-out: Css
measure: concentration at 24 h (nM)
Your answer is read as nM, so omit the unit and give the number.

Problem: Consider the compound CCC(C)n1ncn(-c2ccc(N3CCN(c4ccc(OCC5COC(Cn6cncn6)(c6ccc(Cl)cc6Cl)O5)cc4)CC3)cc2)c1=O (stereo unspecified) and give its measured concentration at 24 h.
Result: 362

---

- experimental_protocol: Drug concentration at steady state in benign prostate hyperplasia patient at 5 mg, po QD after 24 hrs
- Assay type: ADME, organism-based
- test_settings: male, human, in vivo, read-out: Css
measure: concentration at 24 h
In your response, the unit should come after the numeric value.

Problem: Given the entry CC(C)(C)NC(=O)[C@H]1CC[C@H]2[C@@H]3CC[C@H]4NC(=O)C=C[C@]4(C)[C@H]3CC[C@]12C [FINASTERIDE] , report its measured concentration at 24 h.
Result: 41 nM
